Molecular target: T1, biotin-labeled DsbA (UniProt P0AEG4 20-208, limits assumed, biotin-labeled)
T1 sequence (looked up): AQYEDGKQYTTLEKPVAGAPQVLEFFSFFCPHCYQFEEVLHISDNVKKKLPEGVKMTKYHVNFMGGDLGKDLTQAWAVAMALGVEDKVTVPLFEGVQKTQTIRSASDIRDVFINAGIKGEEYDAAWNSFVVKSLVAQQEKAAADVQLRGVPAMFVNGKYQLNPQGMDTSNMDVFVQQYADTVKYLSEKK
Assay: peptide microarray fluorescence (Cy5), peptide on the array, biotin-DsbA in solution
No end group written: not given here.
The following binders are listed with their measured SIGNAL INTENSITY values.

Below: 5 binders and their reported SIGNAL INTENSITY.
SIIGMCYKKDPS-NH2 [SIIGMCYKKDPS-NH2] :: 1360
DFWHGETCKVTQFDQ-NH2 [DFWHGETCKVTQFDQ-NH2] :: 1800
YVYGMCWKDYTTDK-NH2 [YVYGMCWKDYTTDK-NH2] :: 2300
WQYENWAITKWQCVK-NH2 [WQYENWAITKWQCVK-NH2] :: 1430
HNWAAQCLNPDQAKL-NH2 [HNWAAQCLNPDQAKL-NH2] :: 2640

Query :: Recorded SIGNAL INTENSITY of HNWAAQCLKDQAKL-NH2 [HNWAAQCLKDQAKL-NH2] , please.
Result :: 1760

Query :: Would you kindly share the measured SIGNAL INTENSITY for DFWHGEQCKVTQFDQ-NH2 [DFWHGEQCKVTQFDQ-NH2] ?
Result :: 4590

Data origin: patent US20220243360A1
